biological target: KRAS G12C and cRAF (Ras-binding domain) interaction (Homo sapiens (Human), UniProt P01116, C118S/C51S/C80L/G12C); assay: Inhibition of KRAS G12C and cRAF binding (AlphaScreen); settings: GMPPNP-loaded KRAS G12C, 19-20 hours incubation with compound; read-out: IC50 (Inhibition of KRAS G12C and cRAF Binding)
Sequence (P01116 other isoform, or with tags, fused parts or gaps G12C/C51S/C80L/C118S): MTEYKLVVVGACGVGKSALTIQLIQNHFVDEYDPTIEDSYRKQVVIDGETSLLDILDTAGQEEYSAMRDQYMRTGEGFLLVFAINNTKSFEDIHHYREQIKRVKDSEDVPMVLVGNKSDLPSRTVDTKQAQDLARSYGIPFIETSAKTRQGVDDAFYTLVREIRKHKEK
pIC50: −log10 of the molar value.
// values below are reported pIC50

>  <smiles_code>
CN(CCNC(=O)/C=C/S(C)(=O)=O)c1nc(OC[C@@H]2CCCN2C)nc2c1CCN(c1cccc3cccc(Cl)c13)C2

>  <pIC50>
7.00 to 8.00

$$$$
>  <smiles_code>
C=CC(=O)N1CC[C@@H](N(C)c2nc(OC[C@]34CCCN3C[C@@H](F)C4)nc3c(F)c(-c4cccc5ccc(F)c(Cl)c45)ncc23)C1

>  <pIC50>
< 6.30

$$$$
>  <smiles_code>
CN(c1nc(OC[C@@]23CCCN2C[C@H](F)C3)nc2c(F)c(-c3cccc4cccc(Cl)c34)ncc12)[C@@H]1CCN(C(=O)/C=C/c2nc([C@H]3C[C@@H]3F)no2)C1

>  <pIC50>
7.00 to 8.00

$$$$
>  <smiles_code>
CN(c1nc(OCC23CCCN2CCC3)nc2c1CCN(c1cccc3cccc(Cl)c13)C2)[C@@H]1CCN(C#N)C1

>  <pIC50>
6.30 to 7.00

$$$$
>  <smiles_code>
COC(=O)/C=C/C(=O)N1C[C@H](N(C)c2nc(OCC34CCCN3CCC4)nc3c2CCN(c2cccc4cccc(Cl)c24)C3)C[C@@H]1C

>  <pIC50>
7.00 to 8.00

$$$$
>  <smiles_code>
CN(c1nc(OC[C@@]23CCCN2C[C@H](F)C3)nc2c(F)c(-c3cccc4cccc(Cl)c34)ncc12)[C@@H]1CCN(C(=O)/C=C/c2nc(C(C)(C)O)no2)C1

>  <pIC50>
> 8.00

$$$$

###

biological target: KRAS G12C and cRAF (Ras-binding domain) interaction (Homo sapiens (Human), UniProt P01116, C118S/C51S/C80L/G12C); experiment: Inhibition of KRAS G12C and cRAF binding (AlphaScreen); settings: additional exemplary compounds; KRAS G12C and cRAF binding; read-out: RAF1 RBD IC50
pIC50: −log10 of the molar value.
// values below are reported pIC50

>  <compound>
C=CC(=O)N1CC[C@@H](N(C)c2nc(OC[C@@]34CCCN3C[C@H](F)C4)nc3c(F)c(-c4cc(OC(F)F)cc5ccccc45)ncc23)C1

>  <pIC50>
< 6.30

$$$$
>  <compound>
CN(CCS(=O)(=O)/C=C/CN1CC(F)(F)C1)c1nc(OC[C@@H]2CCCN2C)nc2c(F)c(-c3cccc4cccc(Cl)c34)ncc12

>  <pIC50>
< 6.30

$$$$
>  <compound>
C=CC(=O)N1CC[C@H]2[C@H]1CCN2c1nc(OC[C@@]23CCCN2C[C@H](F)C3)nc2c1CCN(c1cccc3cccc(Cl)c13)C2

>  <pIC50>
< 6.30

$$$$
>  <compound>
N#CN1CC[C@H]2[C@@H]1CCN2c1nc(OC[C@@]23CCCN2C[C@H](F)C3)nc2c(F)c(-c3cccc4cccc(Cl)c34)ncc12

>  <pIC50>
< 6.30

$$$$
>  <compound>
O=C(/C=C/CN1CCOCC1)N1C2CC1CN(c1nc(OC[C@@]34CCCN3C[C@H](F)C4)nc3c(F)c(-c4cccc5cccc(Cl)c45)ncc13)C2

>  <pIC50>
< 6.30

$$$$
>  <compound>
C=CC(=O)N1CCC1CN(C)c1nc(OC[C@@]23CCCN2C[C@H](F)C3)nc2c(F)c(-c3cccc4cccc(Cl)c34)ncc12 (stereo partly shown)

>  <pIC50>
< 6.30

$$$$
>  <compound>
CN(c1nc(OCC23CCCN2CCC3)nc2c1CCN(c1cccc3cccc(Cl)c13)C2)[C@@H]1CCN(C(=O)/C=C/CN2CC(F)(F)C2)C1

>  <pIC50>
6.30 to 7.00

$$$$
>  <compound>
CC(C)c1noc(/C=C/C(=O)N2CCN(c3nc(OC[C@@]45CCCN4C[C@H](F)C5)nc4c3CCN(c3cccc5cccc(Cl)c35)C4)CC2)n1

>  <pIC50>
< 6.30

$$$$
>  <compound>
C=CC(=O)CCCN(C)c1nc(OC[C@@H]2CCCN2C)nc2c1CCN(c1cccc3ccccc13)C2

>  <pIC50>
< 6.30

$$$$
>  <compound>
C=CC(=O)CCN(C)c1nc(OC[C@@H]2CCCN2C)nc2c1CCN(c1cccc3cccc(Cl)c13)C2

>  <pIC50>
7.00 to 8.00

$$$$
>  <compound>
CN(c1nc(OC[C@@]23CCCN2C[C@H](F)C3)nc2c(F)c(-c3cccc4cccc(Cl)c34)ncc12)[C@@H]1CCN(C(=O)/C=C/c2ncn(C)n2)C1

>  <pIC50>
< 6.30

$$$$
>  <compound>
Cc1nccc(/C=C/C(=O)N2CCC[C@H](Nc3nc(OC[C@@]45CCCN4C[C@H](F)C5)nc4c(F)c(-c5cccc6cccc(Cl)c56)ncc34)C2)n1

>  <pIC50>
< 6.30

$$$$
>  <compound>
Cc1nccc(/C=C/C(=O)N2CCCN(c3nc(OC[C@@]45CCCN4C[C@H](F)C5)nc4c(F)c(-c5cccc6cccc(Cl)c56)ncc34)CC2)n1

>  <pIC50>
< 6.30

$$$$
>  <compound>
CC(C)c1noc(/C=C/C(=O)N2C[C@H]3C[C@@H]2CN3c2nc(OC[C@@]34CCCN3C[C@H](F)C4)nc3c(F)c(-c4cccc5cccc(Cl)c45)ncc23)n1

>  <pIC50>
< 6.30

$$$$
>  <compound>
CN(c1nc(OCC23CCCN2CCC3)nc2c1CCN(c1cccc3cccc(Cl)c13)C2)[C@@H]1CCN(C(=O)/C=C/C2(C)COC2)C1

>  <pIC50>
< 6.30

$$$$
>  <compound>
C#Cc1c(F)ccc2cccc(-c3ncc4c(N(C)[C@@H]5CCCN(C(=O)/C=C/c6cc(C)nc(C)n6)C5)nc(OC[C@@]56CCCN5C[C@H](F)C6)nc4c3F)c12

>  <pIC50>
6.30 to 7.00

$$$$
>  <compound>
C=CC(=O)N1CCC(CN(C)c2nc(OC[C@@]34CCCN3C[C@H](F)C4)nc3c(F)c(-c4cccc5cccc(Cl)c45)ncc23)C1 (stereo partly shown)

>  <pIC50>
< 6.30

$$$$
>  <compound>
C=CC(=O)N1CC(CN(C)c2nc(OC[C@]34CCCN3C[C@@H](F)C4)nc3c2CCN(c2cccc4cccc(Cl)c24)C3)C1

>  <pIC50>
6.30 to 7.00

$$$$
>  <compound>
C=CC(=O)CCCCN(C)c1nc(OC[C@@H]2CCCN2C)nc2c1CCN(c1cccc3ccccc13)C2

>  <pIC50>
6.30 to 7.00

$$$$
>  <compound>
C=CC(=O)N1CC2CC(Nc3nc(OC[C@@]45CCCN4C[C@H](F)C5)nc4c(F)c(-c5cccc6cccc(Cl)c56)ncc34)C1C2 (stereo partly shown)

>  <pIC50>
< 6.30

$$$$
>  <compound>
CN(c1nc(OCC23CCCN2CCC3)nc2c(F)c(-c3cccc4cccc(Cl)c34)ncc12)[C@@H]1CCN(C(=O)/C=C/c2cnccn2)C1

>  <pIC50>
< 6.30

$$$$
>  <compound>
CN(C)C/C=C/C(=O)N1CC[C@@H](N(C)c2nc(OCC34CCCN3CCC4)nc3c2CCN(c2cccc4cccc(Cl)c24)C3)C1

>  <pIC50>
7.00 to 8.00

$$$$

###

// values below are reported pIC50
target: KRAS G12C and cRAF (Ras-binding domain) interaction (Homo sapiens (Human), UniProt P01116, C118S/C51S/C80L/G12C); assay: Inhibition of KRAS G12C and cRAF binding (AlphaScreen); conditions: additional exemplary compounds; KRAS G12C and cRAF binding; read-out: RAF1 RBD IC50
pIC50: −log10 of the molar value.

>  <molecule>
O=C(/C=C/CN1C2CCC1COC2)N1CCN(c2nc(OC[C@@]34CCCN3C[C@H](F)C4)nc3c(F)c(-c4cccc5cccc(Cl)c45)ncc23)C2CC21 (stereo partly shown)

>  <pIC50>
< 6.30

$$$$
>  <molecule>
C/C=C/C(=O)CCN(C)c1nc(OC[C@@H]2CCCN2C)nc2c1CCN(c1cccc3ccccc13)C2

>  <pIC50>
< 6.30

$$$$
>  <molecule>
C=CC(=O)N1CC[C@@H](N(C)c2nc(OCC34CCCN3CCC4)nc3c2CCN(c2cccc4ccc(F)c(Cl)c24)C3)C1

>  <pIC50>
6.30 to 7.00

$$$$
>  <molecule>
C=CC(=O)N1CCCC1CN(C)c1nc(OC[C@@]23CCCN2C[C@H](F)C3)nc2c(F)c(-c3cccc4cccc(Cl)c34)ncc12 (stereo partly shown)

>  <pIC50>
< 6.30

$$$$
>  <molecule>
COC/C=C/C(=O)N1CC[C@@H](N(C)c2nc(OCC34CCCN3CCC4)nc3c2CCN(c2cccc4cccc(Cl)c24)C3)C1

>  <pIC50>
6.30 to 7.00

$$$$
>  <molecule>
CN1CCC[C@H]1COc1nc(N(C)[C@@H]2CCN(C#N)C2)c2cnc(-c3cccc4ccc(F)c(Cl)c34)c(F)c2n1

>  <pIC50>
6.30 to 7.00

$$$$
>  <molecule>
Cc1nccc(/C=C/C(=O)N2CCC3(C2)CN(c2nc(OC[C@@]45CCCN4C[C@H](F)C5)nc4c(F)c(-c5cccc6cccc(Cl)c56)ncc24)C3)n1

>  <pIC50>
< 6.30

$$$$
>  <molecule>
O=C(/C=C/CN1[C@@H]2CC[C@H]1COC2)N1CCN(c2nc(OC[C@@]34CCCN3C[C@H](F)C4)nc3c(F)c(-c4cccc5cccc(Cl)c45)ncc23)C2(CC2)C1

>  <pIC50>
< 6.30

$$$$
>  <molecule>
CN(C)C/C=C/S(=O)(=O)CCN(C)c1nc(OC[C@@H]2CCCN2C)nc2c(F)c(-c3cccc4cccc(Cl)c34)ncc12

>  <pIC50>
7.00 to 8.00

$$$$
>  <molecule>
C=CC(=O)CCOc1nc(OC[C@@H]2CCCN2C)nc2c1CCN(c1cccc3ccccc13)C2

>  <pIC50>
< 6.30

$$$$
>  <molecule>
Cc1nccc(/C=C/C(=O)N2C[C@H]3C[C@@H]2CN3c2nc(OC[C@@]34CCCN3C[C@H](F)C4)nc3c(F)c(-c4cccc5cccc(Cl)c45)ncc23)n1

>  <pIC50>
< 6.30

$$$$
>  <molecule>
C=CC(=O)N1CC(CN(C)c2nc(OC[C@]34CCCN3C[C@@H](F)C4)nc3c(F)c(-c4cccc5cccc(Cl)c45)ncc23)C1

>  <pIC50>
6.30 to 7.00

$$$$
>  <molecule>
N#CN1C2CCC1CN(c1nc(OC[C@@]34CCCN3C[C@H](F)C4)nc3c1CCN(c1cccc4ccc(F)c(Cl)c14)C3)C2

>  <pIC50>
< 6.30

$$$$
>  <molecule>
CN(c1nc(OCC23CCCN2CCC3)nc2c(F)c(-c3cccc4cccc(Cl)c34)ncc12)[C@@H]1CCN(C(=O)/C=C/c2nnn(C)n2)C1

>  <pIC50>
< 6.30

$$$$
>  <molecule>
CN(c1nc(OCC23CCCN2CCC3)nc2c(F)c(-c3cccc4cccc(Cl)c34)ncc12)[C@@H]1CCN(C(=O)/C=C/c2cn(C)nn2)C1

>  <pIC50>
< 6.30

$$$$
>  <molecule>
C=CC(=O)N1C[C@H](N(C)c2nc(OCC34CCCN3CCC4)nc3c(F)c(-c4cccc5cccc(Cl)c45)ncc23)C[C@H]1C

>  <pIC50>
< 6.30

$$$$
